assay: In-vivo pharmacokinetic experiments on rats; set-up: species or system SD rats; settings: both sexes, SD, plasma, iv; Rat PK i.v 3 mg/kg; read-out: Vss
readout-type: Vd (L/kg)
Could you give me the number in L/kg? Just the number is fine.

Asked: Sample Cc1ccc(C2=NN(C(=O)N[C@H](C)c3ccc(C(F)(F)F)nc3)C[C@@H]2N2CCOC2=O)cc1 — what was its Vd?
Given back: 2.8

Asked: What value of Vd has been recorded for this entry: CCOC(=O)N(C)[C@H]1CN(C(=O)N[C@H](C)c2cnc(C(F)(F)F)nc2)N=C1c1ccc(C)cc1
Given back: 2.05

====

Record form. Attribute: pIC50. Fill in for each entry.
Target: human P2X3 (Homo sapiens, UniProt P56373)
Sequence (P56373 1-397): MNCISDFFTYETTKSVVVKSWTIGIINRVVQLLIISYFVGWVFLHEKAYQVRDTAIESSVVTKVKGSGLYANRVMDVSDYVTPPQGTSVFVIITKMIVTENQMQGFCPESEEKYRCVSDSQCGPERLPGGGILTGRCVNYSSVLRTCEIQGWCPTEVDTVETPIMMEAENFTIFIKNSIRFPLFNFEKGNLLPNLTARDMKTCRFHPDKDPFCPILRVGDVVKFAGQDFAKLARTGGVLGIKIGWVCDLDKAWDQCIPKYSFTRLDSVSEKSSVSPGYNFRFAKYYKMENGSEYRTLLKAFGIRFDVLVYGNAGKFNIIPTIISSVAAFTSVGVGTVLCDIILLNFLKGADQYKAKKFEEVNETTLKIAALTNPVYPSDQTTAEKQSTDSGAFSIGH
Assay: cell-based
pIC50 field: float, defined as -log10 of concentration (mol/L).

Asked: Give its pIC50 value. Item: CC(=O)N1CCN([C@H]2CN(C(=O)N[C@H](C)c3cnc(C(F)(F)F)nc3)N=C2c2ccc(C)cc2)CC1
Given back: 5.43

Asked: Please look up its pIC50: Cc1ccc(C2=NN(C(=O)N[C@H](C)c3cnc(C(F)(F)F)nc3)C[C@H]2N2CCOCC2=O)cc1
Given back: 6.50

Asked: // returns reported pIC50 for input Cc1ncc([C@@H](C)NC(=O)N2C[C@H](N3CCOC3=O)C(c3ccc(Cl)cc3)=N2)cn1
Given back: 6.48

Asked: Item CC(=O)N(C)[C@@H]1CN(C(=O)N[C@H](C)c2ccc(Cl)nc2)N=C1c1ccc(C)cc1 [Compound 11a] has what recorded pIC50?
Given back: 6.55

====

Target: UniProtKB P56373
Sequence (P56373 1-397): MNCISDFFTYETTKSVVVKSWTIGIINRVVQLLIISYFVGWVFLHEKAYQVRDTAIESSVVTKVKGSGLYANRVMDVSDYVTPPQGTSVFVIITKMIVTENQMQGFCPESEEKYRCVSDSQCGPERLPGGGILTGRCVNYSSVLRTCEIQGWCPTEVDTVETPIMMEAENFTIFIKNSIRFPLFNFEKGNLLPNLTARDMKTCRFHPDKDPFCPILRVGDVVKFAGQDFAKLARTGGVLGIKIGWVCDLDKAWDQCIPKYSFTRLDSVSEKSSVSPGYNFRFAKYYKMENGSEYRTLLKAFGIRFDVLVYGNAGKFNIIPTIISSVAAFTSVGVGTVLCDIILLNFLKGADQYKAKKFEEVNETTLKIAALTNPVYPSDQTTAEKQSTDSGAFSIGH
Experiment: cell-based
Please go through the items and note down their IC50.
Write the value in nM as a bare number.

Asked: For the compound COc1ccc([C@@H](C)NC(=O)N2C[C@H](N3CCOC3=O)C(c3ccc(C)cc3)=N2)cc1OC , what IC50 is on record?
Given back: 1230

Asked: What IC50 value was documented for this compound, Cc1ccc(C2=NN(C(=O)N[C@H](C)c3cnc(C(F)(F)F)cn3)C[C@@H]2N2CCOCC2=O)cc1 ?
Given back: 143

Asked: # lookup: IC50 of COc1ccc([C@@H](C)NC(=O)N2C[C@H](N3CCOC3=O)C(c3ccc(Cl)cc3)=N2)nn1
Given back: 152

Asked: Sample CC(=O)N(C)[C@@H]1CN(C(=O)N[C@H](C)c2ccc(C(F)(F)F)nc2)N=C1c1ccc(C)cc1 [Compound 25a] — what was its IC50?
Given back: 112

Asked: What IC50 value was documented for this compound, Cc1ccc(C2=NN(C(=O)N[C@H](C)c3ccc(C(F)(F)F)nc3)C[C@@H]2N2CCOC2=O)cc1 ?
Given back: 56

Asked: // IC50 lookup, key: Cc1ccc(C2=NN(C(=O)N[C@H](C)c3ccc4c(c3)OCO4)C[C@@H]2N2CCCC2=O)cc1
Given back: 985

Asked: State the recorded IC50 for this entry: Cc1ccc(C2=NN(C(=O)N[C@H](C)c3cnc(F)c(F)c3)C[C@@H]2N2CCOC2=O)cc1
Given back: 436
